Catalogue of drug sensitivity score readings, one per entry.
# Tested on: DERL-7 (IL-2 2.5 ng/mL)
# experiment notes: drug sensitivity score (DSS) (DSS units); higher = more sensitive; extreme values may be limits of the assay
# condition parameters: 72 h

molecule	drug sensitivity score
CC[C@H](CC#N)OC(=O)N[C@@H](C)c1cccc(NC(=O)Nc2ccc(-c3cnco3)c(OC)c2)c1 [AVN944] (max concentration tested 10000 nM)	22.3
CC1(COc2ccc3c(c2)ncn3-c2ccc3cccc(N4CCC(N)CC4)c3n2)COC1 [Crenolanib] (max concentration tested 10000 nM)	11.6
O=C(CCCCCCC(=O)Nc1ccc([C@H]2O[C@@H](CSc3nc(-c4ccccc4)c(-c4ccccc4)o3)C[C@@H](c3ccc(CO)cc3)O2)cc1)NO [Tubacin] (max concentration tested 10000 nM)	7.93
O=C(O)CCCc1ccc(N(CCCl)CCCl)cc1 [Chlorambucil] (max concentration tested 10000 nM)	2
